Attribution: ChEMBL document CHEMBL1961873

Task for the reader: assign each of the following molecules its reported inhibition.
# testedOn: Homeodomain-interacting protein kinase 4 (Homo sapiens) (UniProt Q8NE63)
# Sequence (whole entry): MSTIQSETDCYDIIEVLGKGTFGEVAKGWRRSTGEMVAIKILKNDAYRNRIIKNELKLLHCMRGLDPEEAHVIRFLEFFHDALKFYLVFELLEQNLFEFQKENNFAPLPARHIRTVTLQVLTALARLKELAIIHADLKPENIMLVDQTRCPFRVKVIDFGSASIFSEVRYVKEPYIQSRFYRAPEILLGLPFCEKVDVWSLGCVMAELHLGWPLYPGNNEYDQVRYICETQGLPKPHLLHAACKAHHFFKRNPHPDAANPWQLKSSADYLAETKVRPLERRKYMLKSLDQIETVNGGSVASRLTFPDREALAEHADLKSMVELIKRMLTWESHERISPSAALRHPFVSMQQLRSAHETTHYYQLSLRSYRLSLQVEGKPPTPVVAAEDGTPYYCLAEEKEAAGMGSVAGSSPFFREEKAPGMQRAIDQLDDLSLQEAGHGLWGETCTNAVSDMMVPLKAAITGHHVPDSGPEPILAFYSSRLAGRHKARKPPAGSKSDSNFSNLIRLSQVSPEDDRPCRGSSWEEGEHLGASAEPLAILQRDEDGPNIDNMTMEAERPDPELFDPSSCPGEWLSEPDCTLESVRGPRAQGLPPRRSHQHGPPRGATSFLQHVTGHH
# conditionSet: at 1 µM;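 note: values are mean percent inhibition of HIPK4 from the GSK PKIS kinase screen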
The response must be a number in % with no trailing unit.

Data request, read-out inhibition, for CCc1nccc2c1nc(-c1nonc1N)n2CC
9.48

Data request, read-out inhibition, for O=C1Nc2ccccc2/C1=C/Nc1ccc(-n2cncn2)cc1
3.17

Data request, read-out inhibition, for c1ccc(-c2n[nH]cc2-c2ccnc(-c3ccc(OCCN4CCOCC4)cc3)c2)nc1
5.51

Data request, read-out inhibition, for CCc1cccc(CC)c1/C=C/c1cncc(C(=O)NC)c1
4.82

Data request, read-out inhibition, for FC(F)(F)c1cccc(Nc2nccc(-c3cnn4nc(-c5ccccc5)ccc34)n2)c1
35.8

Data request, read-out inhibition, for CN(C)CCOc1ccc(-c2cc(-c3ccc4c(c3)CCC4=NO)c(-c3ccncc3)o2)cc1
2.98

Data request, read-out inhibition, for Fc1ccc(-c2ncn(CCCN3CCOCC3)c2-c2ccncc2)cc1
-2.54

Data request, read-out inhibition, for COc1cc(Nc2ncc3c(C)nc(-c4cccc(C(F)(F)F)c4)n3n2)cc(OC)c1OC
9.08

Data request, read-out inhibition, for Fc1ccc(-c2nc3n(c2-c2ccncc2)CCS3)cc1
1.1

Data request, read-out inhibition, for COc1cc2ncn(-c3cc(OCc4ccccc4C(F)(F)F)c(C(C)=O)s3)c2cc1OC
7.24

Data request, read-out inhibition, for N#Cc1ccc(Oc2nccc(-c3c(-c4ccc(F)cc4)ncn3C3CCNCC3)n2)cc1
-0.61

Data request, read-out inhibition, for O=C(Nc1n[nH]c2cc(-c3cc(F)ccc3F)ccc12)C1CC1
3.56

Data request, read-out inhibition, for COc1cc(C)c(N(C)C(=O)CN(C)C)cc1Nc1nc(Nc2cccc(F)c2C(N)=O)c2cc[nH]c2n1
4.88

Data request, read-out inhibition, for C[C@@H](Oc1cc(-n2cnc3ccc(OCC4CCN(C)CC4)cc32)sc1C(N)=O)c1ccccc1Cl
21.8

Data request, read-out inhibition, for COc1cc(Nc2ncc(-c3ccccc3)o2)cc(OC)c1OC
3.87

Data request, read-out inhibition, for Fc1ccc(-c2ncn(C3CCNCC3)c2-c2ccnc(Oc3ccc4c(c3)OCO4)n2)cc1
7.7

Data request, read-out inhibition, for Cc1ccc(C(=O)NC(C)C)cc1-c1ccc(C(=O)NCC2CC2)cc1
3.79
